# Test system: α7 integrin promoter
# TEST_DETAILS: muscle cell-based assay: α7βgal+/− myoblasts/myotubes, LacZ reporter, β-galactosidase cleavage of FDG
# Parameters: species or system mouse
# RECORDED_CONDITIONS: curve fit, activity at zero concentration
This section presents compounds with their documented Fit Zero Activity [%] values.
QUANTITY_MEASURED: Fit Zero Activity [%]

>>> value("COc1ccc(CN2CCNC(=O)C2CC(=O)NCCc2c[nH]c3ccccc23)c(OC)c1 (stereo not shown)")
"−9.1413%"
>>> value("COc1cccc(N2C(=O)CC(N3CCc4ccccc4C3)C2=O)c1 (stereo not shown)")
"−19.4361%"
>>> value("CC(/C=C(\\O)c1ccccc1)=N\\c1ccc(Br)c(Cl)c1")
"7.8122%"
>>> value("COC(=O)C1SCC2C(=O)N(Cc3ccc(F)cc3)CC(=O)N21 (stereo not shown)")
"−54.3669%"
>>> value("N#Cc1ccc(OCC(O)CS(=O)(=O)c2ccccc2)cc1 (stereo not shown)")
"−9.8792%"
>>> value("N=C(NOC(=O)COc1cc(Cl)c(Cl)cc1Cl)c1ccncc1")
"−2.6906%"
>>> value("COc1ccc(N2CCN(CCC3Oc4cc([N+](=O)[O-])ccc4NC3=O)CC2)cc1 (stereo not shown)")
"−2.9581%"
>>> value("COCCN1C=C(C(=O)OC)C(c2ccccc2Cl)C(C(=O)OC)=C1")
"3.9836%"
>>> value("COc1ccc(/C=C(\\NC(=O)c2ccc(C)cc2)C(=O)Nc2ccc(C(=O)O)cc2)cc1")
"−2.4804%"
>>> value("COc1ccc(CNC(=O)COC(=O)CCc2c[nH]c3ccccc23)cc1")
"−0.6011%"
>>> value("Cn1c(=O)c2c(nc(Sc3ncnn3CC(=O)NC3CCCCC3)n2C)n(C)c1=O")
"−19.8816%"
>>> value("COc1ccccc1C(=O)NCCOc1ccc(C(C)(C)C)cc1")
"−0.7805%"
>>> value("CCCC(=O)Nc1ccccc1NC(=O)c1ccc(OCC)cc1")
"13.9528%"
>>> value("CCOc1ccc(NC(=O)CN2C(=O)NC(CCSC)C2=O)cc1 (stereo not shown)")
"−1.6238%"
>>> value("O=S(=O)(c1ccccc1)N1CCCC(c2nc(O)c3nnn(Cc4cccc(Cl)c4)c3n2)C1 (stereo not shown)")
"−42.9418%"
>>> value("CC(=O)c1cccc(NC(=O)C(=O)Nc2cccc3ccccc23)c1")
"1.5%"
>>> value("N#Cc1ccc(Sc2nc3ccccc3[nH]2)cc1C#N")
"13.7566%"
>>> value("Cn1ccc(C(=O)Nc2cccnc2Cl)n1")
"−4.0391%"
>>> value("COc1ccccc1C(=O)NCC(=O)/N=N/c1c(O)n(C(C)C)c2ccccc12")
"14.712%"

Recorded values, source patent US10028992B2.
